molecular target: human Phosphodiesterase 5 (PDE5), PDE5A (gene 8654) (UniProt O76074); assay: NVS_ENZ_hPDE5: NovaScreen (NVS) Enzymatic Assay for human Phosphodiesterase 5 (PDE5) (AID 2283194)
Records with an inconclusive call do not appear. Calls of active or inactive are those of the source. The calls were made as follows: active = hit-call score of the fitted dose curve at least 0.9, where 1 is the maximum; inconclusive = response in the unintended direction; inactive = score below 0.9.
Tick one outcome: active, inactive

Examples from the recorded data:
{"Chemical Smiles": "O=C(c1ccc(O)cc1O)c1ccc(O)cc1O", "Cat": "active"}
{"Chemical Smiles": "CCOC(=O)c1ccc(O)cc1", "Cat": "inactive"}
{"Chemical Smiles": "O=C(O)C1(C(=O)Nc2ccc(Cl)cc2Cl)CC1", "Cat": "active"}

Continue with the next molecule.
Query: # lookup: test call for c1ccc2[nH]c(-c3cscn3)nc2c1
Response: active

###

read-out: Tissue Factor, F3 (gene 2152); assay: BSK_CASM3C_TissueFactor: BioMAP Diversity Plus: CASM3C Assay for Tissue Factor Biomarker Activity (AID 2283052); settings: primary human coronary artery smooth muscle cells; actives raise or lower the signal;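 also: cell surface tissue factor protein level read by ELISA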
The source made the active and inactive calls. Rule for the calls: active = hit-call score of the fitted dose curve at least 0.9, where 1 is the maximum; inactive = score below 0.9.
Attribute Measured: outcome

Past entries and their recorded results:
{"Compound": "COC(=O)c1cccc(C)c1S(=O)(=O)NC(=O)Nc1nc(OCC(F)(F)F)nc(N(C)C)n1", "outcome": "inactive"}
{"Compound": "CCOC(=O)COc1cc(-n2ncc(C(F)(F)F)c(C)c2=O)c(F)cc1Cl", "outcome": "inactive"}
{"Compound": "CCCCC(CC)CN1C(=O)C2C3C=CC(C3)C2C1=O (stereo not given)", "outcome": "inactive"}
{"Compound": "COCCO", "outcome": "inactive"}

// moving on: another record for outcome
Query: Need outcome of CSC(=O)c1cccc2nnsc12 , thanks.
Response: inactive

###

read-out: Cyclin Dependent Kinase Inhibitor 1A (CDKN1A), CDKN1A (gene 1026); test: LTEA_HepaRG_CDKN1A: Life Technologies and Expression Analysis (LTEA) Assay for Cyclin Dependent Kinase Inhibitor 1A (CDKN1A) using HepaRG (AID 2283450); details: mRNA level, 48 h; actives raise or lower the signal
The source made the active and inactive calls. The calls were made as follows: active = hit-call score of the fitted dose curve at least 0.9, where 1 is the maximum; inactive = score below 0.9.
Tick one outcome: active, inactive

Examples from the recorded data:
{"Compound": "S=C([S-])NCCNC(=S)[S-].[Mn+2]", "Cat": "inactive"}
{"Compound": "CCOC(=O)NCCOc1ccc(Oc2ccccc2)cc1", "Cat": "active"}
{"Compound": "c1ccc(Nc2ccccc2)cc1", "Cat": "inactive"}
{"Compound": "CC(C)(C)[C@@H](O)[C@@H](Cc1ccc(Cl)cc1)n1cncn1", "Cat": "inactive"}
{"Compound": "CCOC(=O)COc1cc(-n2ncc(C(F)(F)F)c(C)c2=O)c(F)cc1Cl", "Cat": "inactive"}
{"Compound": "CCCCOC(=O)C(C)Oc1ccc(Oc2ccc(C(F)(F)F)cn2)cc1 (stereo unspecified)", "Cat": "inactive"}
{"Compound": "C#C[C@]1(O)CC[C@H]2[C@@H]3CCC4=CC(=O)CC[C@@H]4[C@H]3CC[C@@]21CC", "Cat": "inactive"}
{"Compound": "c1ccc2[nH]c(-c3cscn3)nc2c1", "Cat": "inactive"}
{"Compound": "C#CCOC(=O)[C@@H](C)Oc1ccc(Oc2ncc(Cl)cc2F)cc1", "Cat": "inactive"}
{"Compound": "C[C@]12CC[C@@H]3c4ccc(O)cc4C[C@@H](CCCCCCCCCS(=O)CCCC(F)(F)C(F)(F)F)[C@H]3[C@@H]1CC[C@@H]2O (stereo partly specified)", "Cat": "inactive"}

Continue with the next compound.
Query: # lookup: test call for CN(C)C(=O)Nc1ccc(Cl)c(Cl)c1
Response: inactive
